abundance fitness reference
B1: Membrane-associated guanylate kinase, WW and PDZ domain-containing protein 2, residues 601 to 682; numbered along this chain, Q86UL8 (parent)
chain: AELMTLTIVKGAQGFGFTIADSPTGQRVKQILDIQGCPGLCEGDLIVEINQQNVQNLSHTEVVDILKDCPIGSETSLIIHRG

Variants of: B1
Experiment: abundance fitness (aPCA) (normalised: wild type 0, dead -1); higher = more abundant; growth selection in yeast, the domain comes from the species named
Conditions: Homo sapiens
Just the number.

Study these solved cases before continuing.
1. T60N | 0.054
2. S58V | -0.093
3. G82A | -0.051
4. Q55C | -0.111
5. Q26S | -0.071

Please find the next variant below.
What does the data say about its abundance fitness? Entry: `E74W`
-0.069
